Provenance of the data: the supplement of paper PMC11865577

Test system: TO-3-N3-2 (biotin conjugate)
testDescription: pull-down binding Z-score (relative to library population); higher = stronger binding
assayConditions: RNA library: Library-2
Reported pull-down binding Z-score values for a set of sequences
The response must contain the number and no unit.

The cases that follow already have their pull-down binding Z-score on record.
biosequence: CACGAGAUUGGGUUGUGCAGAGGCUGACACUUG [hsa-mir-5004]
quantitativeResult: 0.0781
//
biosequence: ACGUGACCUCCUGGGCCUG [hsa-mir-6770-1_6770-3_6770-2]
quantitativeResult: 0.131

stdin: Which pull-down binding Z-score reading was recorded for the sequence GCUAGCUCUUGGAGGUUCCGUGGCUAUAAAGAUAACAGAACAUUCUUGGAAUGCUGAUCUUUAUAAGCUCAUGGGACACUUCGCAUGGUGGACAGC ?
stdout: 0.121

stdin: What about UACCUUUUGCUAUGGGUA ?
stdout: -0.454

stdin: What about CUCGGGAGGCUGAG [hsa-mir-4419a] ?
stdout: -0.459

---

System: TO-N3 (biotin conjugate)
testDescription: pull-down binding Z-score (relative to library population); higher = stronger binding
assayConditions: RNA library: Library-2
Decision: pull-down binding Z-score compared against 0.5; not below it gives 1, below it gives -1.

biosequence: GCAGCUAGUAAUAUGAGCCCAGUUGC [hsa-mir-153-2]
className: -1
--
biosequence: GAACCUUGCUCUUCUGGAACAUACGAGGGCAAUUC
className: -1
--
biosequence: GCCGGGGCCUGGCGCUCCUCUACCUUGUCAGGUGACCCAGC [hsa-mir-4274]
className: 1
--
biosequence: CGCGGAGCAGCGCUGGGUGCAGCGCCUG [hsa-mir-4508]
className: -1
--
biosequence: GCGCUGCCAGAAACUGGCUUCAGCGC [bulge-UUC]
className: -1
--
biosequence: ACAAGGCUAUUGAUGGUGGUGUCACUCGUGACAUAGCAUCUACAGAUACUUGU [SHAPE_invitro_SARS-CoV-2_Motif_170]
className: -1
--
biosequence: CGUUCCAAUGCGACACCUCUAGAGUGUCAUCCCCUAGAAUGUCACCUUGGAAAG [hsa-mir-4432]
className: -1
--
biosequence: GGGAAGAACACC [IAV_invivo_M1_M2_7_Motif_3+IAV_invivo_M1_M2_7_Motif_3]
className: 1

Next item in the queue.
stdin: Does the sequence GCGGGGGUGGGGGCCUCGCCCUGCUUGGGCCCUCCCUGAC [hsa-mir-6821] have recorded pull-down binding Z-score that is 0.5 or more?
stdout: 1

---

System: G-clamp-N3 (biotin conjugate)
testDescription: pull-down binding Z-score (relative to library population); higher = stronger binding
assayConditions: RNA library: Library-1 (pre-miRNA loops + repeats)
Decision: pull-down binding Z-score compared against -0.8; not below it gives T, below it gives F.

Example cases with answers are listed next.
biosequence: CCGGGUGCCCACAAGACUGUG [hsa-mir-3138]
className: T

biosequence: CUGUUCAGGACAAUGCCGUUGUACA [hsa-mir-199a-2]
className: T

stdin: Does the sequence CAGUCAGUAAAUAUUUUUUUGUGAAUG [hsa-mir-511] have recorded pull-down binding Z-score that is -0.8 or more?
stdout: T

stdin: What about GGAUGUGUUGACCCCUGAAGUGGUUCUGAUGACCUUUCC [hsa-mir-6883] ?
stdout: F

stdin: What about AACACCCAUCCCAGGAUUGCUGAUGGGUGUU [hsa-mir-5705] ?
stdout: T
